Assay: qHTS of pediatric cancer cell lines to identify multiple opportunities for drug repurposing: Confirmatory screen for BT-12 cells (AID 1347112);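 also: viability read after 48 h of compound exposure; nearly all actives have a fitted effect of over 55% in size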
Conditions: BT-12 rhabdoid tumor cells, viability; series mostly up to 45.9 µM
Description: Drug repurposing or repositioning has been offered as a strategy for drug development in oncology programs. […] [1] Shen, M et al. Quantitative high-throughput phenotypic screening of pediatric cancer cell lines identifies multiple opportunities for drug repurposing. […] Cells were assayed in growth media at a density of 500-1,000 cells/well. […] After a 15 min incubation at room temperature, samples were analyzed for luminescence intensity using a ViewLux High-throughput CCD imager equipped with clear filters.
Results filed as inconclusive are left out. The source made the active and inactive calls. Calls follow the shape of the dose curve; as a rule, active = well fitted cell-killing curve with a large enough effect; inconclusive = small, poorly fitted or top-dose-only effect; inactive = flat fitted curve, though single readings scatter.
Respond only with the outcome that fits, drawn from active, inactive

CC[n+]1c(-c2ccccc2)c2cc(N)ccc2c2ccc(N)cc21	active
CCCCCCCCC(=O)NCc1ccc(O)c(OC)c1	inactive
CC1Sc2c(C(=O)O)c(=O)c3cc(F)c(N4CCNCC4)cc3n21 (stereo unspecified)	inactive
C[C@@H]1O[C@@H](O[C@@H]2C=C3CC[C@@H]4[C@H](CC[C@]5(C)[C@@H](c6ccc(=O)oc6)CC[C@]45O)[C@@]3(C)CC2)[C@H](O)[C@H](O)[C@H]1O	active
ClC1=C(Cl)C2(Cl)C(CBr)CC1(Cl)C2(Cl)Cl (stereo unspecified)	inactive

// next entry
Asked: Query: recorded result category for CCc1ccc(C2CCNCC2)cc1 in this test
Given back: inactive

----------
Test: Drug repurposing screens with cells derived from glioblastoma tumor samples (AID 1345199); also: % is scaled to controls: 0 for no effect and ±100 for the full control effect; nearly all actives have a fitted effect of over 40% in size
Conditions: GBM patient neurospheres viability, ATP luminescence, 48 h; at 46 µM (top of the series); tumour line A
Results filed as inconclusive are left out.
metric name: activity, negative = cell killing (%)
Return type: number; implicit unit %.

Asked: Tell me measured activity, negative = cell killing for CC(C)NCC(O)c1ccc(N)c(C#N)c1 (configuration not stated) please.
Given back: -34.1

Asked: Tell me measured activity, negative = cell killing for CCN(CC)C(C)C(=O)c1ccccc1 (configuration not stated) please.
Given back: -22.4

----------
Conditions: Ebola virus entry assay, ratio channel
Active and inactive are the calls of the source. How the calls were made is not given here.
metric name: AC50

Nc1nc2ncc(CNc3ccc(C(=O)N[C@@H](CCC(=O)O)C(=O)O)cc3)nc2c(=O)[nH]1	inactive
O=C1OC2(c3ccccc31)c1cc(I)c(O)c(I)c1Oc1c2cc(I)c(O)c1I	inactive
ClCc1cccc(Cl)c1	inactive
CCCCC(=O)O[C@]1(C(=O)CO)CC[C@H]2[C@@H]3CCC4=CC(=O)CC[C@]4(C)[C@H]3[C@@H](O)C[C@@]21C	inactive
CCCCOc1cc(C(=O)OCCN(CC)CC)ccc1N	31.6 µM (active)
O=C(O)CCc1nc(-c2ccccc2)c(-c2ccccc2)o1	inactive
CC(C)C(=O)Nc1cccc(C2CN3CCSC3=N2)c1 (configuration not stated)	inactive
C=CC[C@]1(O)CC[C@H]2[C@@H]3CCC4=CC(=O)CCC4=C3C=C[C@@]21C	inactive
Cc1nc2ccccc2c(=O)n1-c1ccccc1Cl	20 µM (active)
O[C@@H](COc1cccc2ncccc12)CN1CCN(C2c3ccccc3[C@@H]3[C@H](c4ccccc42)C3(F)F)CC1 (some centres not stated)	10 µM (active)

Asked: Tell me measured AC50 for O=C1C(CCS(=O)c2ccccc2)C(=O)N(c2ccccc2)N1c1ccccc1 (configuration not stated) please.
Given back: inactive

Asked: Tell me measured AC50 for O=C(O)COC(=O)Cc1ccccc1Nc1c(Cl)cccc1Cl please.
Given back: inactive

Asked: Tell me measured AC50 for CCOc1ccccc1O[C@H](c1ccccc1)[C@H]1CNCCO1 please.
Given back: 15.8 µM (active)

Asked: Tell me measured AC50 for CC(C)C[C@@H](N)C(=O)O please.
Given back: inactive

Asked: Tell me measured AC50 for C[N+]1(CC2COC(c3ccccc3)(C3CCCCC3)O2)CCCCC1 (configuration not stated) please.
Given back: inactive

Asked: Tell me measured AC50 for CC[C@]1(O)CC[C@H]2[C@@H]3CCC4=CCCC[C@@H]4[C@H]3CC[C@@]21C please.
Given back: 15.8 µM (active)

Asked: Tell me measured AC50 for C[C@]12CCC(=O)C=C1[C@@H]1C[C@@H]1[C@H]1[C@@H]3[C@@H]4C[C@@H]4[C@@]4(CCC(=O)O4)[C@@]3(C)CC[C@@H]12 please.
Given back: inactive

Asked: Tell me measured AC50 for CN1C2CCC(C)(C)C1CC(OC(=O)C(O)(c1cccs1)c1cccs1)C2 (configuration not stated) please.
Given back: 15.8 µM (active)

Asked: Tell me measured AC50 for O=c1oc2c(O)c(O)cc3c(=O)oc4c(O)c(O)cc1c4c23 please.
Given back: 11.2 µM (active)

Asked: Tell me measured AC50 for O=C(O)CNC(=O)c1ccccc1I please.
Given back: inactive

Asked: Tell me measured AC50 for CN1CCCC(CC2c3ccccc3Sc3ccccc32)C1 (configuration not stated) please.
Given back: 3.16 µM (active)

Asked: Tell me measured AC50 for CNC(=O)Oc1cccc2ccccc12 please.
Given back: inactive
